Molecular target: NDM-1 (Klebsiella pneumoniae)
Construct: VIM-1; VIM-2
Sequence (C7C422 29-270, looked up): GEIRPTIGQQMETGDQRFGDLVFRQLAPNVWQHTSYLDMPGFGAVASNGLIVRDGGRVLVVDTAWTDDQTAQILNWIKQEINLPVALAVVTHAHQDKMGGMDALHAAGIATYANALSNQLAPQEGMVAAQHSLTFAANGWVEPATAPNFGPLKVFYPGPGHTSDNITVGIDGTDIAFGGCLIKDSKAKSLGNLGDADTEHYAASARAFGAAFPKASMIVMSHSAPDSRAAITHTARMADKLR
Assay: In vitro enzyme inhibition assay (imipenem hydrolysis, UV 299 nm)
Type: biochemical
Conditions: purified enzyme, 10mM HEPES pH 7.5, Imipenem 300µM; mean Ki from IC50 by Cheng-Prusoff; read-out: Ki (µM) NDM-1
measureName: Ki

Consider the compound CSc1n(CC(=O)Nc2ccc(S(=O)(=O)Nc3scnc3C(=O)[O-])cc2F)cc[n+]1C [Example 4] . State its measured Ki. 0.05 to 0.2 µM

----------
Target: VIM-1 (Pseudomonas aeruginosa)
Construct: VIM-1; VIM-2; IMP-1)
Assay: In vitro enzyme inhibition assay (imipenem hydrolysis, UV 299 nm)
Assay type: biochemical
Conditions: read-out: Ki (µM) VIM-1; purified enzyme, 10mM HEPES pH 7.5, Imipenem 300µM; mean Ki from IC50 by Cheng-Prusoff
measureName: Ki

Some solved cases for reference:
- compound: "N#Cc1cc(S(=O)(=O)Nc2scnc2C(=O)[O-])ccc1NC(=O)Cn1cc[n+](CCN)c1 [Example 18]"
  measureName: "Ki"
  readoutValue: "< 0.2 µM"
- compound: "Cc1n(CC(=O)Nc2ccc(S(=O)(=O)Nc3scnc3C(=O)[O-])cc2F)cc[n+]1C [Example 2]"
  measureName: "Ki"
  readoutValue: "0.2 to 0.5 µM"
- compound: "C[n+]1ccn(CC(=O)Nc2ccc(S(=O)(=O)Nc3scnc3C(=O)[O-])cc2F)c1N [Example 3]"
  measureName: "Ki"
  readoutValue: "0.2 to 0.5 µM"
- compound: "C[n+]1ccn(CC(=O)Nc2c(F)cc(S(=O)(=O)Nc3scnc3C(=O)[O-])cc2F)c1 [Example 13]"
  measureName: "Ki"
  readoutValue: "0.5 to 0.8 µM"
- compound: "NCCC[n+]1ccn(CC(=O)Nc2ccc(S(=O)(=O)Nc3scnc3C(=O)[O-])cc2F)c1 [Example 16]"
  measureName: "Ki"
  readoutValue: "< 0.2 µM"
- compound: "Cc1cn(CC(=O)Nc2ccc(S(=O)(=O)Nc3scnc3C(=O)[O-])cc2F)c[n+]1C [Example 7]"
  measureName: "Ki"
  readoutValue: "< 0.2 µM"
- compound: "N=C(N)NCC[n+]1ccn(CC(=O)Nc2c(F)cc(S(=O)(=O)Nc3scnc3C(=O)[O-])cc2F)c1 [Example 15]"
  measureName: "Ki"
  readoutValue: "< 0.2 µM"
- compound: "C[n+]1ccn(CC(=O)Nc2ccc(S(=O)(=O)Nc3scnc3C(=O)[O-])cc2F)n1 [Example 9]"
  measureName: "Ki"
  readoutValue: "0.2 to 0.5 µM"
- compound: "CC[n+]1ccn(CC(=O)Nc2ccc(S(=O)(=O)Nc3scnc3C(=O)[O-])cc2F)n1 [Example 24]"
  measureName: "Ki"
  readoutValue: "0.2 to 0.5 µM"
- compound: "NCC[n+]1ccn(CC(=O)Nc2ccc(S(=O)(=O)Nc3scnc3C(=O)[O-])cc2F)c1 [Example 11]"
  measureName: "Ki"
  readoutValue: "< 0.2 µM"

Consider the compound C[n+]1ccn(CC(=O)Nc2ccc(S(=O)(=O)Nc3scnc3C(=O)[O-])cc2F)c1 [Example 1] . State its measured Ki. 0.2 to 0.5 µM

Consider the compound C[n+]1c(N)ccn1CC(=O)Nc1ccc(S(=O)(=O)Nc2scnc2C(=O)[O-])cc1F [Example 8] . State its measured Ki. 0.2 to 0.5 µM

Consider the compound Cc1c[n+](C)cn1CC(=O)Nc1ccc(S(=O)(=O)Nc2scnc2C(=O)[O-])cc1F [Example 6] . State its measured Ki. 0.5 to 0.8 µM

Consider the compound C[n+]1nnn(CC(=O)Nc2ccc(S(=O)(=O)Nc3scnc3C(=O)[O-])cc2F)c1N [Example 26] . State its measured Ki. 0.2 to 0.5 µM

Consider the compound NCC[n+]1ccn(CC(=O)Nc2c(F)cc(S(=O)(=O)Nc3scnc3C(=O)[O-])cc2F)c1 [Example 14] . State its measured Ki. < 0.2 µM

Consider the compound C[n+]1ccn(CC(=O)Nc2c(F)cc(S(=O)(=O)Nc3scnc3C(=O)[O-])cc2F)n1 [Example 23] . State its measured Ki. 0.2 to 0.5 µM
